Molecular target: 92 kDa gelatinase (MMP-9) (Homo sapiens)
Sequence (P14780 107-707 limits assumed): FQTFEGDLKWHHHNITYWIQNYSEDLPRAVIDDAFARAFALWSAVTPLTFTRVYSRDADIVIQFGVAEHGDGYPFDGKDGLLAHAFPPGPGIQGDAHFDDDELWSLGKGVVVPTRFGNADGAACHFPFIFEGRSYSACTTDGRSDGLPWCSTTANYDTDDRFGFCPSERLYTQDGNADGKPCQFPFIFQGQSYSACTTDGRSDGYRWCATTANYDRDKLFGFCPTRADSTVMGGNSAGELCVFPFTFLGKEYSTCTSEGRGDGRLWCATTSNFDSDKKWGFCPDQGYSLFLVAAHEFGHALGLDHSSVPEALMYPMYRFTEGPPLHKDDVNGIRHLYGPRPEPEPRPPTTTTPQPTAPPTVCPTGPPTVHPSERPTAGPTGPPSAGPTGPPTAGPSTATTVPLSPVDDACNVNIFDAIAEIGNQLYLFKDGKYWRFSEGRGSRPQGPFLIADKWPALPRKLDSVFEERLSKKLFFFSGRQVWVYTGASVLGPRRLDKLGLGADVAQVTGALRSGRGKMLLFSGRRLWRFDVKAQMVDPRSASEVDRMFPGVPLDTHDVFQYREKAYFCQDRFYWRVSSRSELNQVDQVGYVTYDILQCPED
Assay: MMP-9 enzyme inhibition assay (coumarin-labeled peptide substrate)
Assay type: biochemical
Details: @ 5 μM; read-out: percentage inhibition MMP9
Procedure: Compounds of the invention were tested to assess their activities as inhibitors of MMP-1, MMP-2, MMP-9, MMP-14, MMP-12 and TACE. MMP-9 Assay Protocol […] The assay was performed in a total volume of 100 μL per well in 96-well microtitre plates. […] The fluorescence at 405 nm was measured immediately with an SLT Fluostar fluorometer (SL T Labinstruments GmbH, Grödig, Austria) using 320 nm excitation, without stopping the reaction. […]
Measurement name: inhibition at 5 µM (%)

Compound: O=CN(O)C(CCc1cccnc1)CS(=O)(=O)N1CCc2ccc(Cl)cc2C1 (stereo not drawn)
inhibition at 5 µM (%): 52

Compound: CCC(CC)C(CS(=O)(=O)N1CCc2cc(C(F)(F)F)ccc2C1)N(O)C=O (stereo not drawn)
inhibition at 5 µM (%): 58

Compound: O=CN(O)[C@H](CS(=O)(=O)N1Cc2ccc(F)cc2C1)[C@H]1CCCO1
inhibition at 5 µM (%): 40

Compound: O=CN(O)C(CS(=O)(=O)N1CCc2ccc(-c3ccncc3)cc2C1)C1CCCC1 (stereo not drawn)
inhibition at 5 µM (%): 57

(a) O=CN(O)C(CS(=O)(=O)N1CCc2ccc(F)cc2C1)c1ccoc1 (stereo not drawn)
(b) O=CN(O)C(CS(=O)(=O)N1CCc2ccc(C(F)(F)F)cc2C1)C1CC1 (stereo not drawn)
(c) CC(C)CC(CS(=O)(=O)N1CCc2ccc(Br)cc2C1)N(O)C=O (stereo not drawn)
(d) CC(C)C(CS(=O)(=O)N1CCc2ccc(-c3ccc(F)cc3)cc2C1)N(O)C=O (stereo not drawn)
(e) CC(C)(CS(=O)(=O)N1CCc2ccc(Br)cc2C1)N(O)C=O
Req: Number of compounds to sort: 5. Sort criterion: inhibition at 5 µM, ascending. Use the labels to give the requested order.
Resp: e, b, a, c, d
(e: 2%, b: 4%, a: 10%, c: 39%, d: 72%)

----------
Molecular target: UniProtKB P03956
Sequence (P03956 100-469): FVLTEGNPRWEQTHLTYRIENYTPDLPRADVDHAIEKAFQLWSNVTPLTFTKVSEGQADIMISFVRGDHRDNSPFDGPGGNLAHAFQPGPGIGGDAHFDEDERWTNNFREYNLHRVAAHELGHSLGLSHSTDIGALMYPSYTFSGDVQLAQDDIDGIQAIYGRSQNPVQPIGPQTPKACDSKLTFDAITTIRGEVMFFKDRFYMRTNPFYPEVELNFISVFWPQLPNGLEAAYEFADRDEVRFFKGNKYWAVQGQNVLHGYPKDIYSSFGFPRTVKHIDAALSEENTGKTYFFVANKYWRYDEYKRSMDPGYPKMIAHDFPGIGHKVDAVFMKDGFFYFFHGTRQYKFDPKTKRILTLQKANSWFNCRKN
Assay: MMP-1 enzyme inhibition assay (coumarin-labelled peptide substrate)
Assay type: biochemical
Settings: @ 5 μM; read-out: percentage inhibition MMP1
Measurement name: inhibition at 5 µM (%)

Solved entries (count: 6):
Molecule: O=CN(O)[C@H](CS(=O)(=O)N1CCc2ccc(C(F)(F)F)cc2C1)[C@H]1CCCO1
inhibition at 5 µM / %: 30
//
Molecule: CCCCCC(C)(C)C(CS(=O)(=O)N1CCc2cc(C(F)(F)F)ccc2C1)N(O)C=O (centres unmarked)
inhibition at 5 µM / %: 34
//
Molecule: O=CN(O)C(CS(=O)(=O)N1CCc2ccc(Br)cc2C1)C1CCCC1 (centres unmarked)
inhibition at 5 µM / %: 36
//
Molecule: CC(C)(C(CS(=O)(=O)N1CCc2ccccc2C1)N(O)C=O)N1CCOCC1 (centres unmarked)
inhibition at 5 µM / %: 5
//
Molecule: CCC(CC)C(CS(=O)(=O)N1CCc2cc(C(C)C)ccc2C1)N(O)C=O (centres unmarked)
inhibition at 5 µM / %: 6
//
Molecule: O=CN(O)C(COc1ccccc1)CS(=O)(=O)N1CCc2ccc(Cl)cc2C1 (centres unmarked)
inhibition at 5 µM / %: 22

(a) CC(C)c1ccc2c(c1)CCN(S(=O)(=O)CC(C1CCCC1)N(O)C=O)C2 (centres unmarked)
(b) O=CN(O)C(CS(=O)(=O)N1CCc2ccc(-c3ccsc3)cc2C1)C1CCCC1 (centres unmarked)
Req: So which one has the bigger inhibition at 5 µM here, a or b ? Write down the label of the entry you select.
Resp: a
(a: 3%, b: 0%)
